Field: pIC50. Provide a value for each of the compounds that follow.
- target.system: human sodium channels Nav 1.8 (Homo sapiens, UniProt Q9Y5Y9)
- Sequence (Q9Y5Y9 whole entry): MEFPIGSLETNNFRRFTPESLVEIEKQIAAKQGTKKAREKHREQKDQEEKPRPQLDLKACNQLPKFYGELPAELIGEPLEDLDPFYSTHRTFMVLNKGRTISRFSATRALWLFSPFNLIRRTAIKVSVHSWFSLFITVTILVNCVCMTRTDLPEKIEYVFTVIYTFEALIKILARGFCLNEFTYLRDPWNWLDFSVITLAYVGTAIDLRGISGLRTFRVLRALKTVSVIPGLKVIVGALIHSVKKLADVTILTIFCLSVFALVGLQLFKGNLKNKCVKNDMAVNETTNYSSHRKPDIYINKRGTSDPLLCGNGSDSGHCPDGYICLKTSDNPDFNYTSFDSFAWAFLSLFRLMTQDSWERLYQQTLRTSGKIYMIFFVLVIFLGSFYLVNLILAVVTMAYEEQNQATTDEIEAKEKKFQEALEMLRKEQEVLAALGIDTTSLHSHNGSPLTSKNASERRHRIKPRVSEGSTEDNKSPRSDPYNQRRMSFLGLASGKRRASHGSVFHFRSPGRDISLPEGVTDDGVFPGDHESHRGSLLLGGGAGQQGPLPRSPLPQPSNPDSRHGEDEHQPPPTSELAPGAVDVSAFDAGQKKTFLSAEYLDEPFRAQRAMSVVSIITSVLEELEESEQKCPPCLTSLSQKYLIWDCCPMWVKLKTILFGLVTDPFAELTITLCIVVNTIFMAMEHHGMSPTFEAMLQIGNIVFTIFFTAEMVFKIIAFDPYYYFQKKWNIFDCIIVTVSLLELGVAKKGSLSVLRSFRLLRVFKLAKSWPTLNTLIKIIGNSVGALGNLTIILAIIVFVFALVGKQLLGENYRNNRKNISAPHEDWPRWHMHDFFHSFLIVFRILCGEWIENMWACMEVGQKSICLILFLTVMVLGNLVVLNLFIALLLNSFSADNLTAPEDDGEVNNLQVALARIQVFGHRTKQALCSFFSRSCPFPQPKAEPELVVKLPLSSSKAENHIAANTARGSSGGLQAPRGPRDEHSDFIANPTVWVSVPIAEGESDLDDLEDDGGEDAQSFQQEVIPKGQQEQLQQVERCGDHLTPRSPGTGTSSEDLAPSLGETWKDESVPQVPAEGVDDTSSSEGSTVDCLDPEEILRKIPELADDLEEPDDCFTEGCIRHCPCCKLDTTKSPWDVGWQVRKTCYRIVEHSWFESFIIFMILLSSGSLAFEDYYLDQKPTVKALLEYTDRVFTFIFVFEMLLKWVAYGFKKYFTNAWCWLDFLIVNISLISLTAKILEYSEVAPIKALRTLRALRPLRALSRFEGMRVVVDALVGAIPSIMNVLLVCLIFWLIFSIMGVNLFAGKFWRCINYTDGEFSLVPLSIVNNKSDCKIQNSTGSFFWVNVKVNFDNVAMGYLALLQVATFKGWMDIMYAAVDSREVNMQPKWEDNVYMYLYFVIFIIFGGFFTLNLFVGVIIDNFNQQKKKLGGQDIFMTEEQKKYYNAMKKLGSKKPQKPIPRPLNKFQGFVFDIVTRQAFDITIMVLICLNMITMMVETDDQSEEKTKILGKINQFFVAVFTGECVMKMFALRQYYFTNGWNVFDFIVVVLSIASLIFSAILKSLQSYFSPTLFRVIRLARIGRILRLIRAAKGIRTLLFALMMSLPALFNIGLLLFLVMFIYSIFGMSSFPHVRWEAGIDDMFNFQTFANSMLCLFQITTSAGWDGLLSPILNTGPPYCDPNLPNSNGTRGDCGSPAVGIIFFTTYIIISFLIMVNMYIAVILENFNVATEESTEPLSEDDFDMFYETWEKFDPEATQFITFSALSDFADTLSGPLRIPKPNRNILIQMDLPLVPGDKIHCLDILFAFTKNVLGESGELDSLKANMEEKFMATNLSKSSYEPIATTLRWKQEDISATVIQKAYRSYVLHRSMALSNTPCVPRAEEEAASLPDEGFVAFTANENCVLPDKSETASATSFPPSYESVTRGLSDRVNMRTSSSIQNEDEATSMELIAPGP
- assay.info: Automated whole-cell voltage-clamp (ScreenPatch 384P) sodium current block, Nav 1.8
- conditions.used: CHO cells stably expressing human Nav 1.8; inactivation step -40 mV 8 s, test step 10 mV (TP1A); eight concentrations; exposure at least five minutes; room temperature; read-out: Nav1.8 IC50
pIC50: −log10 of the molar value.

Examples from the recorded data:
CCOc1ccc(-c2cncc(C(=O)N/N=C/c3cc(OC)c(F)cc3F)n2)cn1 | > 6.30
CN(C)c1ccc(F)c(/C=N/NC(=O)c2cncc(-c3ccc(OC(F)F)nc3)n2)c1 | > 6.30
COc1cc(/C=N/NC(=O)c2cncc(-c3ccc(OC(F)(F)F)nc3)n2)c(F)cn1 | > 6.30
COc1ccc(F)c(/C=N/NC(=O)c2cncc(-c3ccc(OCC(C)N)nc3)n2)c1 (stereo not drawn) | < 6.00
COc1cnc(F)c(/C=N/NC(=O)c2cncc(-c3ccc(OC(F)F)nc3)c2)c1 | < 6.00

For each of the compounds below, state pIC50.
1. CC(O)c1cnc(F)c(/C=N/NC(=O)c2cncc(-c3ccc(OC(F)F)nc3)n2)c1 (stereo not drawn)
2. O=C(N/N=C/c1cc(OC2CC2)ccc1F)c1cncc(-c2ccc(OC(F)(F)F)nc2)n1
3. CCOc1ccc(-c2cncc(C(=O)N/N=C/c3nccn3CC)n2)cn1
4. COc1cnc(F)c(/C=N/NC(=O)c2cncc(-c3cnc(OC(F)F)cc3C)n2)c1
5. CCOc1ccc(-c2cncc(C(=O)N/N=C/c3cc(CN)ccc3F)n2)cn1

Result block:
1. 6.00 to 6.30
2. > 6.30
3. 6.00 to 6.30
4. > 6.30
5. < 6.00

----------
- target.system: UniProtKB Q15858
- Sequence (Q15858 whole entry): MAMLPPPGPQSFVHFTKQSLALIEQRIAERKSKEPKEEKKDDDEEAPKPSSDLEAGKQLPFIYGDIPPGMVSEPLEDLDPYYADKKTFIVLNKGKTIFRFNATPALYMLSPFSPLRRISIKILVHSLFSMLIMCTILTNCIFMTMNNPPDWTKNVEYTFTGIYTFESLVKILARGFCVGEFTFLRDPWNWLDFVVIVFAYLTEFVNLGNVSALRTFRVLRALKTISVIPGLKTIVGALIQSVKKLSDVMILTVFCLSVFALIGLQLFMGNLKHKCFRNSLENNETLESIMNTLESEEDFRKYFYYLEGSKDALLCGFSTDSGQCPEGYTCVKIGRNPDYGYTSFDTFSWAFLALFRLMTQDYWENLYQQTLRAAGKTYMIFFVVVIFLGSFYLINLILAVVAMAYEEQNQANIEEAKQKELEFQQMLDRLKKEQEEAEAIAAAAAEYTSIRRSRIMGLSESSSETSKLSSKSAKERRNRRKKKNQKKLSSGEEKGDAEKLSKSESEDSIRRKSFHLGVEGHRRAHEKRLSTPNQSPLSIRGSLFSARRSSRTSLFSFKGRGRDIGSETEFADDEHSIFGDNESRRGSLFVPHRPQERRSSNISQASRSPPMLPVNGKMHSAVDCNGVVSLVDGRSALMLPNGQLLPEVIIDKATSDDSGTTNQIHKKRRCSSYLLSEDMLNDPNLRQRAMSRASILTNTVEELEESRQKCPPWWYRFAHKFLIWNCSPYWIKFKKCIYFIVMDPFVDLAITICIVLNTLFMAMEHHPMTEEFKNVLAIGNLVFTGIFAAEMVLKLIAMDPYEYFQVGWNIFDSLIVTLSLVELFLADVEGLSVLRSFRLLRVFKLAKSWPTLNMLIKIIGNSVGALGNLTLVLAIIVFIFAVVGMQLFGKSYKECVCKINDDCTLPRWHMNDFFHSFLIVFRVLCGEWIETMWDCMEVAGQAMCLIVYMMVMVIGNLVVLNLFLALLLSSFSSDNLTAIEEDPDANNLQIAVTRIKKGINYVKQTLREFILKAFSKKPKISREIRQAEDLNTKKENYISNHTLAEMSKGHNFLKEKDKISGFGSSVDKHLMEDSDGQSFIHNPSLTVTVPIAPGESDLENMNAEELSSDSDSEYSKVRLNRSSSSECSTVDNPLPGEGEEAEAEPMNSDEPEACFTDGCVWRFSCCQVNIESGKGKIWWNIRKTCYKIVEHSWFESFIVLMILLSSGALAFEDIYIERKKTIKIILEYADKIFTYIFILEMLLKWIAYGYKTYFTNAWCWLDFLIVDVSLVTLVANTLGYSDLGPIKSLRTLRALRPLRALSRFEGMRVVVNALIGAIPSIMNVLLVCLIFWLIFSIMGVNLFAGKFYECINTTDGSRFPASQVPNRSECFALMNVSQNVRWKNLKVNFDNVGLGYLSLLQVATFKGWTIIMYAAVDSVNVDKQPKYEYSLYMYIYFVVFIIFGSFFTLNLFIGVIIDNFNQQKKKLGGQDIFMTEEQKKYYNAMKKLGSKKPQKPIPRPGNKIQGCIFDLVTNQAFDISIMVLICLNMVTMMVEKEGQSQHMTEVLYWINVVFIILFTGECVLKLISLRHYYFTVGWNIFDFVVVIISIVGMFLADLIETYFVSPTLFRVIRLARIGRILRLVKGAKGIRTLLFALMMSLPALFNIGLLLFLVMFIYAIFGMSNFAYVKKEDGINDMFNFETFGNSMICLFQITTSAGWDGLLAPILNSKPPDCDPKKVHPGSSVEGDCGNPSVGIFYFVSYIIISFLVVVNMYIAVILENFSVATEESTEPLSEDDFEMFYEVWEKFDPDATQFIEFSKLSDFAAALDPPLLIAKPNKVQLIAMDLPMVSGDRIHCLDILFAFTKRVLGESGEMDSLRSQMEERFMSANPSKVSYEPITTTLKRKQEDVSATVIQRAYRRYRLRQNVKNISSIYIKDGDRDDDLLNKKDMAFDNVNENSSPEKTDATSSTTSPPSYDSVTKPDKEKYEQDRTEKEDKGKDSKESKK
- assay.info: Automated whole-cell voltage-clamp (ScreenPatch 384P) sodium current block, Nav 1.7
- conditions.used: CHO cells stably expressing human Nav 1.7; inactivation step -40 mV 8 s, test step 0 mV (TP1A); eight concentrations; exposure at least five minutes; room temperature; read-out: Nav1.7 IC50
pIC50: −log10 of the molar value.
Field: pIC50. Provide a value for each of the molecules that follow.

Examples from the recorded data:
CC(O)c1ccnc(/C=N/NC(=O)c2cncc(-c3ccc(OC(F)F)nc3)n2)c1 (centres unmarked) [Compound 114] | < 6.00
CC(O)c1cnc(F)c(/C=N/NC(=O)c2cncc(-c3ccc(OC(F)F)nc3)n2)c1 (centres unmarked) [Compound 112] | < 6.00
COc1cnc(F)c(/C=N/NC(=O)c2nccc(-c3ccc(OC(F)F)nc3)n2)c1 [Compound 127] | < 6.00
COc1cc(/C=N/NC(=O)c2cncc(-c3ccc(OC(F)(F)F)nc3)n2)c(F)cn1 [Compound 96] | < 6.00
COc1cc(/C=N/NC(=O)c2cncc(-c3ccc(OC4CC4)nc3)n2)c(F)cc1F [Compound 78] | > 6.30
CCOc1ccc(-c2cncc(C(=O)N/N=C/c3cc(S(N)(=O)=O)ccc3F)n2)cn1 [Compound 14] | < 6.00

For each of the molecules below, state pIC50.
1. CCOc1ccc(-c2cncc(C(=O)N/N=C/c3cc(O)nc(OC)c3)n2)cn1 [Compound 43]
2. CCOc1ncc(-c2cncc(C(=O)N/N=C/c3cc(OC)cnc3F)n2)cc1O [Compound 157]
3. CCOc1ccc(-c2cncc(C(=O)N/N=C/c3cc(OC)ccc3C)n2)cn1 [Compound 17]

Result block:
1: < 6.00; 2: < 6.00; 3: 6.00 to 6.30

For each of the molecules below, state pIC50.
1. CCOc1ccc(-c2ccnc(C(=O)N/N=C/c3cc(OC)cnc3F)n2)cn1 [Compound 73]
2. CCOc1ccc(F)c(/C=N/NC(=O)c2cncc(-c3ccc(OC4CC4)nc3)n2)c1 [Compound 80]
3. COc1cnc(F)c(/C=N/NC(=O)c2cncc(-c3ccc(OC(F)(F)F)nc3)n2)c1 [Compound 95]
4. CCOc1ccc(-c2cncc(C(=O)N/N=C/c3ncoc3C)n2)cn1 [Compound 62]
5. CCOc1ccc(-c2cncc(C(=O)N/N=C/c3cc(OC(C)C)ccc3F)n2)cn1 [Compound 5]
6. COc1cncc(/C=N/NC(=O)c2cncc(-c3ccc(OC(F)F)nc3)n2)c1 [Compound 107]
7. COc1ccc(F)c(/C=N/NC(=O)c2cncc(-c3ccc(S(N)(=O)=O)nc3)n2)c1 [Compound 133]
8. COc1ccc(F)c(/C=N/NC(=O)c2cnc(O)c(-c3ccc(OC(F)(F)F)nc3)n2)c1 [Compound 98]

Result block:
1. < 6.00
2. < 6.00
3. < 6.00
4. < 6.00
5. > 6.30
6. < 6.00
7. < 6.00
8. < 6.00

----------
- target.system: human sodium channels Nav 1.8 (Homo sapiens, UniProt Q9Y5Y9)
- assay.info: Automated whole-cell voltage-clamp (ScreenPatch 384P) sodium current block, Nav 1.8
- conditions.used: CHO cells stably expressing human Nav 1.8; inactivation step -40 mV 8 s, test step 10 mV (TP1A); eight concentrations; exposure at least five minutes; room temperature; read-out: Nav1.8 IC50
Field: IC50. Provide a value for each of the compounds that follow.

COc1cnc(F)c(/C=N/NC(=O)c2cncc(-c3ccc(OC4CNC4)nc3)n2)c1 | > 1000 nM
CCOc1ccc(-c2cncc(C(=O)N/N=C/c3cc(OC)cnc3F)n2)cn1 | < 500 nM
CCOc1ccc(-c2cncc(C(=O)N/N=C/c3cc(C(=O)O)ccc3F)n2)cn1 | > 1000 nM
Cc1ccccc1/C=N/NC(=O)c1cncc(-c2ccc(OC(F)(F)F)nc2)n1 | < 500 nM
CCOc1ccc(-c2nc(C(=O)N/N=C/c3cc(OC)ccc3F)cnc2N)cn1 | 500 to 1000 nM

For each of the compounds below, state IC50.
1. CCOc1ccc(-c2cncc(C(=O)N/N=C/c3cc(OC)ccc3C)n2)cn1
2. O=C(N/N=C/c1cccc(O)n1)c1cncc(-c2ccc(OC(F)F)nc2)n1
3. CCOc1ccc(-c2cnc(N)c(C(=O)N/N=C/c3cc(OC)ccc3F)n2)cn1
4. CC(O)c1cccc(/C=N/NC(=O)c2cncc(-c3ccc(OC(F)F)nc3)n2)c1 (centres unmarked)
5. COc1ccc(F)c(/C=N/NC(=O)c2cncc(-c3ccc(OCCN)nc3)n2)c1
6. CCOc1ccc(-c2nc(C(=O)N/N=C/c3cc(OC)ccc3F)cn(C)c2=O)cn1
7. CCOc1cc(C)c(-c2cncc(C(=O)N/N=C/c3cc(OC)cnc3F)n2)cn1

Result block:
["< 500 nM", "> 1000 nM", "500 to 1000 nM", "500 to 1000 nM", "> 1000 nM", "> 1000 nM", "< 500 nM"]

For each of the compounds below, state IC50.
1. COc1ccc(F)c(/C=N/NC(=O)c2cncc(-c3ccc(OCC4CN(C)C4)nc3)n2)c1
2. CCOc1ccc(-c2cncc(C(=O)N/N=C/c3cc(C(C)O)cnc3F)n2)cn1 (centres unmarked)
3. COc1cncc(/C=N/NC(=O)c2cncc(-c3ccc(OC(F)F)nc3)n2)c1
4. CCOc1ccc(-c2cncc(C(=O)N/N=C/c3cccc(C(C)O)c3)n2)cn1 (centres unmarked)
5. [2H]C([2H])([2H])Oc1cnc(F)c(/C=N/NC(=O)c2cncc(-c3ccc(OC([2H])([2H])C)nc3)n2)c1

Result block:
["> 1000 nM", "500 to 1000 nM", "> 1000 nM", "500 to 1000 nM", "< 500 nM"]

----------
- target.system: UniProt:Q9Y5Y9
- assay.info: Automated whole-cell voltage-clamp (ScreenPatch 384P) sodium current block, Nav 1.8
- conditions.used: CHO cells stably expressing human Nav 1.8; inactivation step -40 mV 8 s, test step 10 mV (TP1A); eight concentrations; exposure at least five minutes; room temperature; read-out: Nav1.8 IC50
test.readout: IC50

Examples from the recorded data:
CCOc1ccc(-c2cncc(C(=O)N/N=C/c3c[nH]nc3C)n2)cn1 | > 1000 nM
CCOc1ccc(-c2cncc(C(=O)N/N=C/c3[nH]ccc3C)n2)cn1 | 500 to 1000 nM
COc1ccc(F)c(/C=N/NC(=O)c2cncc(-c3ccc(OCC(C)O)nc3)n2)c1 (centres unmarked) | > 1000 nM
COc1cnc(F)c(/C=N/NC(=O)c2cncc(-c3ccc(OC(F)F)nc3)n2)c1 | < 500 nM

For each of the compounds below, state IC50.
1. CCOc1ccc(-c2nc(C(=O)N/N=C/c3cc(OC)ccc3F)cnc2O)cn1
2. CCOc1ccc(-c2cnc(O)c(C(=O)N/N=C/c3cccn3C)n2)cn1
3. COc1ccc(F)c(/C=N/NC(=O)c2cncc(-c3ccc(OC(F)F)nc3)n2)c1
4. CCOc1ccc(-c2cncc(C(=O)N/N=C/c3cc(OC)cnc3F)n2)c(OC)n1

Result block:
1. > 1000 nM
2. > 1000 nM
3. < 500 nM
4. < 500 nM

Source: patent EP4660182A1
